Test system: HACAT
Assay: qHTS assay to identify novel small-molecules to repurpose for Merkel cell carcinoma treatment (AID 1296009); further: nearly all actives have a fitted effect of over 60% in size
Settings: MCC and control cell lines, CellTiter-Glo viability, 72 h; at 44.8 µM (top of the series) unless noted
Inconclusive results are not listed. Calls of active or inactive are those of the source. The call rests on the fitted dose curve; in most records, active means well fitted inhibition curve with a large enough effect; inconclusive means small, poorly fitted or top-dose-only effect; inactive means flat fitted curve, though single readings scatter.
measurement label: outcome

The following molecules have reported results that may help.
molecule: COC(=O)C1C(c2ccc(O)cc2)C(C(=O)OC)C1c1ccc(O)cc1 (stereo unspecified)
outcome: inactive
//
molecule: Cc1cc(C)cc(NC(=O)Cc2ccc(OC(C)(C)C(=O)O)cc2)c1
outcome: inactive
//
molecule: C=C1CCC2C(C)(C)CC(=O)CC2(C)C1CCC(C)CCOC(C)=O (stereo unspecified)
outcome: inactive
//
molecule: C[C@@H]1O[C@@H](O[C@@H]2[C@@H](O)[C@H](O[C@@H]3[C@@H](O)[C@@H](O)[C@H](O[C@H]4[C@H](OC(=O)[C@]56CCC(C)(C)C[C@H]5C5=CCC7[C@@]8(C)C[C@H](O)[C@H](O[C@@H]9O[C@@H](C)[C@H](O)[C@@H](O)[C@H]9O)[C@@](C)(CO)C8CC[C@@]7(C)[C@]5(C)C[C@H]6O)O[C@H](C)[C@H](O)[C@@H]4O)O[C@H]3C)OC[C@H]2O)[C@H](O)[C@H](O)[C@H]1O (stereo partly specified)
outcome: inactive [at 9.27 µM]
//
molecule: C/C=C(\C)C(=O)O[C@H]1[C@H](O)[C@]2(COC(C)=O)[C@H](O)C[C@]3(C)C(=CCC4[C@@]5(C)CC[C@H](O[C@@H]6O[C@H](C(=O)O)[C@@H](O[C@@H]7O[C@H](CO)[C@@H](O)[C@H](O)[C@H]7O)[C@H](O)[C@H]6O[C@@H]6O[C@H](CO)[C@@H](O)[C@H](O)[C@H]6O)[C@](C)(CO)C5CC[C@]43C)[C@@H]2CC1(C)C (stereo partly specified)
outcome: inactive [at 9.27 µM]

Exercise: Which outcome value is on record for C[C@]1(OC(=O)/C=C/c2ccccc2)C[C@H](O)[C@]2(O)C=CO[C@@H](O[C@@H]3O[C@H](CO)[C@@H](O)[C@H](O)[C@H]3O)C12 (stereo partly specified) ?
Solution: inactive [at 17.4 µM]

Exercise: Similarly, COc1ccc(C(O[C@@H]2O[C@H](CO)[C@@H](O)[C@H](O)[C@H]2O)C(CO)Oc2ccc(/C=C/CO)cc2OC)cc1O (stereo partly specified) ?
Solution: inactive [at 17.4 µM]

Exercise: Similarly, CC(=O)C1CCC2(C)C3=C(CCC12C)C1(C)CCC(=O)C(C)(C)C1CC3 (stereo unspecified) ?
Solution: inactive

Exercise: Similarly, CC(=O)OC1C=C(C(=O)O)C2(CO)CCC(C)C(C)(CCc3ccoc3)C2C1 (stereo unspecified) ?
Solution: inactive [at 17.4 µM]

Exercise: Similarly, C[C@]1(O)CC[C@@H]2C(C(=O)O)=CO[C@@H](O[C@@H]3O[C@H](COC(=O)c4ccc(O)cc4)[C@@H](O)[C@H](O)[C@H]3O)[C@@H]21 ?
Solution: inactive [at 17.4 µM]

Exercise: Similarly, CC(C)NC[C@H](O)COc1ccc(CCOCC2CC2)cc1 ?
Solution: inactive

Exercise: Similarly, C=C(C)C(=O)O[C@H]1C[C@@](C)(OC(C)=O)[C@@]2(O)CC[C@@](C)(O)[C@H](OC(C)=O)[C@@]23OC(=O)C(COC)=C13 ?
Solution: inactive [at 17.4 µM]

Exercise: Similarly, CC(C)C1=CC2=CCC3[C@](C)(CCC[C@@]3(C)C(=O)O)C2CC1O (stereo partly specified) ?
Solution: inactive
